- Tested on: LoVo
- test_method_notes: cells
- condition_set: Homo sapiens, LoVo, 48 h, read-out: LOVO GI50
Entries and their measured GI50 follow.
property: GI50 (nM)

| compound | property | u | reading |
| --- | --- | --- | --- |
| COC1=C(C)C(=O)C2=C(C1=O)[C@@H]1C3[C@@H]4SC[C@]5(NCCc6c5[nH]c5ccccc65)C(=O)OC[C@@H](c5c6c(c(C)c(OC(C)=O)c54)OCO6)N3[C@@H](O)[C@H](C2)N1C (some centres unmarked) | GI50 | nM | 265 |
| CCCCCCCCCCCCCCCC(=O)NC1CS[C@@H]2c3c(OC(C)=O)c(C)c4c(c3[C@H](COC1=O)N1C2[C@@H]2N[C@@H](Cc3cc(C)c(OC)c(O)c32)[C@@H]1O)OCO4 (some centres unmarked) | GI50 | nM | 358 |
| COc1c(C)cc2c(c1OC(=O)/C=C/c1ccccc1)[C@H]1N[C@@H](C2)[C@H](C#N)N2C1[C@@H]1SCC(NC(=O)C(F)(F)F)C(=O)OC[C@H]2c2c3c(c(C)c(OC(C)=O)c21)OCO3 (some centres unmarked) | GI50 | nM | 28.7 |
| COc1cc2c(cc1O)CCN[C@]21CS[C@@H]2c3c(OC(C)=O)c(C)c4c(c3[C@H](COC1=O)N1C[C@@H]3Cc5cc(C)c(OC)c(O)c5C(C21)N3C)OCO4 (some centres unmarked) | GI50 | nM | 5550 |
| COc1cc2c(cc1O)CCN[C@]21CS[C@@H]2c3c(OC(C)=O)c(C)c4c(c3[C@H](CNC1=O)N1C2[C@H]2c3c(cc(C)c(OC)c3O)C[C@@H]([C@@H]1C#N)N2C)OCO4 (some centres unmarked) | GI50 | nM | 274 |
